target: T1, hSIRPγ displayed on U2OS cells (Homo sapiens, UniProt Q9P1W8); test: immunostaining of cells or tissue; live-cell immunofluorescence on U2OS cells expressing the target; unlabeled Nbs (1 nM to 100 nM) with Cy5-labeled anti-VHH, 1 h at 37°C; conditions: one partner purified
T1 construct: signal-regulatory protein γ (SIRPγ), human; also called hSIRPy; source: U2OS, transiently expressing, on live cells
T1 sequence (Q9P1W8 29-387): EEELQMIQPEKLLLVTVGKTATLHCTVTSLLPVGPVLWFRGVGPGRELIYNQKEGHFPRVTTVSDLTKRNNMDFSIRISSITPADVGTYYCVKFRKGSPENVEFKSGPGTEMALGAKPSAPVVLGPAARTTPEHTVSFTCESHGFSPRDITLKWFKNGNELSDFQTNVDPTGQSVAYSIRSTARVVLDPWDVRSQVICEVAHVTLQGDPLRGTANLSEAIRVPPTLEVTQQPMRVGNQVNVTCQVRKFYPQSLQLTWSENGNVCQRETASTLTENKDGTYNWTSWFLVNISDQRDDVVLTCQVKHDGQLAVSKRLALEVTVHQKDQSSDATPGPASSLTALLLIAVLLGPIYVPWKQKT
Endpoint Label: binding result

INSERT INTO assay_data (binder, data_value) VALUES
  ('hSIRPα Nb S8 (VHH, selected against the entire extracellular portion of hSIRPα; source: E. coli XL-1, purified (IMAC, SEC); not shown: His tag (from the IMAC purification)) VHH: QVQLVESGGGLVQPGGSLRLSCADSEFRLDEYATGWFRQAPGKEREGVACISRSGSNTKYTDSVKGRFTISRDNAKKTVYLQMNSLKPEDTAVYYCAADLTSHYLSCSSYTDYNSWGQGTQVTVSS', 'binds'),
  ('hSIRPα Nb S44 (VHH, selected against domain 1 of hSIRPα; source: E. coli XL-1, purified (IMAC, SEC); not shown: His tag (from the IMAC purification)) VHH: QVQLQESGGGLVQPGGSLRLACAASGFTFSSYDMSWVRQAPGKGLEWVSDIKSGGGRTYYADSVKGRFTISRDNAKNTVYLQMNSLKPEDTAVYYCGSLDNSGAYTGGGQGSQVTVSS', 'binds');
